Cited source for all entries: patent US20250250357A1

Can you tell me competition rate for the items I'm about to list?
Target: T1, human MSLN-FL-his protein (human, UniProt Q13421 296-580)
T1 construct: made in HEK293E cells, purified on nickel column; also called hMSLN-FL-his; human MSLN full-length protein; not shown: His tag
T1 sequence (Q13421 other isoform, or with tags, fused parts or gaps): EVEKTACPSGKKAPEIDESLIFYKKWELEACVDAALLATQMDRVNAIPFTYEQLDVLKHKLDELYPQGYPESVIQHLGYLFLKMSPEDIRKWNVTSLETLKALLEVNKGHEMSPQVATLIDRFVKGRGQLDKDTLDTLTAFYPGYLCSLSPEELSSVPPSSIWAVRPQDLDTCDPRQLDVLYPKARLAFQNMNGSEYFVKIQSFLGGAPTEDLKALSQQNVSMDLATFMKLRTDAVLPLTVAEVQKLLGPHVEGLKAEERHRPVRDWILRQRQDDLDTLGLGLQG
Assay: competitive ELISA; row Tab142; also: test concentration or dose not given here
Answers are plain numbers, in %.

# example entries with known answers
S009-F8-12.13 (antibody, human IgG1, kappa, V domains shown, human-murine chimeric antibody, human IgG1/kappa constant regions) VH: QVQLQQPGAELVKPGASVKLSCKASGYTFTSYWMHWVKQRPGQGLEWIGMIHPNSGSTNYNEKFKSKATLTVDKSSSTAYMQLSSLTSEDSAVYYCARRTPIITLVGHWYFDVWGTGTTVTVSS VL: DIVMTQSHKFMSTSVGDRVSITCKASQDVGTAVAWYQQKPGQSPKLLIYWASTRHTGVPDRFTGSGSGTDFTLTISNVQSEDLADYFCQQYSSYPLTFGAGTKLELKR | 65.5
S009-F8-7.5 (antibody, human IgG1, kappa, V domains shown, human-murine chimeric antibody, human IgG1/kappa constant regions) VH: DVQLQESGPGLVKPSQSLSLTCSVTGYSITSGYYWNWIRQFPGNKLEWMAYIRYDGSNNYNPSLKNRISIIRDTSKNQFFLRLNSVTTEDTATYYCAKSYYGMDDWGQGISVTVSS VL: DIQMTQSPASLSASVGETVTITCRTSGDIHNYLAWYQQKQGKSPQLLVYKAKTLENGVPSRFTGSGSGTQFSLKIDSLQPEDFGTYYCQHFWTTPYTFGGGTKLEIKR | 2.16

Here is another binder to look at.
Consider S009-F8-4.5 (antibody, human IgG1, kappa, V domains shown, human-murine chimeric antibody, human IgG1/kappa constant regions) VH: QVQLQQPGAELVKPGASVKLSCKASGYTFTIYWMHWVKQRPGQGLEWIGMIHPNSGNTNYNEKFKSKATLTVDKSSSTAYMQLSSLTSEDSAVYYCSLIHWYFDVWGTGTTVTVSS VL: QIVLTQSPAIMSASPGEKVTMTCSASSSVSYMYWYQQKPGSSPRLLIYDTSNLASGVPVRFSGSGSGTSYSLTISRMEAEDAATYYCQQWSSYPLTFGAGTKLELKR . Its measured competition rate is 97.8
